composite z-score by entry:
Target: Streptavidin (Streptomyces avidinii) (UniProt P22629)
Sequence (P22629 whole entry, looked up): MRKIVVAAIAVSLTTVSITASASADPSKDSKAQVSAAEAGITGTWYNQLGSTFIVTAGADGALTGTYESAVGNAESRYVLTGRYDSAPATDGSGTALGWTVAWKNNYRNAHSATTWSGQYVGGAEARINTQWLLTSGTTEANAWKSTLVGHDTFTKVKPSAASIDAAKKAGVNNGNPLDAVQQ
Test: compounds binding control protein streptavidin – biophysical, small-molecule microarray, 635/667 nm fluorescence, artefact control for SMM compound annotation, primary screen (AID 1147);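 further: signal reflects streptavidin binding to arrayed compounds as a control protein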
Settings: higher = more signal
No unit in the answer, only the number.

C=C(/C(=C/C[C@@H](OC(C)=O)c1cccc(OCCO)c1)c1cnc2ccccc2c1)C(C)C 0.208
C=CCOC(=O)[C@H]1[C@@H]2C(=O)O[C@@H](c3ccccc3)[C@@H](c3ccccc3)N2[C@@H](c2ccc(OCCOC(=O)[C@H]3C[C@H]4C(=O)N[C@@H](CC(C)C)C(=O)N4[C@H]3c3ccc(O)cc3)cc2)[C@]12C(=O)Nc1ccccc12 0.137

Okay, next one:
Recorded composite z-score of COC(=O)[C@@]1(Cc2ccc(OC)cc2)[C@H]2c3cc(C(=O)N4CCCC4)n(Cc4ccc(C(F)(F)F)nc4)c3C[C@H]2CN1C(=O)c1ccccc1 , please. -0.012
